Assay read-out pIC50 on Carbonic anhydrase 2 (Homo sapiens, UniProt P00918); records merged from the literature.
pIC50: −log10 of the molar value.
Measured Attribute: pIC50

Compound | Result Number
CCCCNc1cc(C(=O)n2nc(C)cc2-c2ccccc2)cc(S(N)(=O)=O)c1Oc1ccccc1 | 6.07
COc1cc(-c2ccc(C=O)cc2)ccc1O[C@H](C)Cn1cc(-c2ccc(F)cc2)nn1 | 4.64
C=CCn1c(-c2ccc(OC)cc2)cs/c1=N\NC(=O)c1cc(NCCCC)c(Oc2ccccc2)c(S(N)(=O)=O)c1 | 6.00
COc1cccc(C2=NN(c3ccc(S(N)(=O)=O)cc3)C(c3ccc4c(c3)OCO4)C2)c1 (stereo not shown) | 5.04
COc1ccc(-c2ccc(O[C@H](C)Cn3cc(-c4ccc(C(F)(F)F)cc4)nn3)c(OC)c2)cc1 | 4.65
NS(=O)(=O)c1ccc(N2N=C(c3ccc([N+](=O)[O-])cc3)CC2c2ccccc2)cc1 (stereo not shown) | 6.27
COc1ccc(C2=NN(c3ccc(S(N)(=O)=O)cc3)C(c3ccccc3)C2)cc1 (stereo not shown) | 6.31
C=CCNC(=S)NNC(=O)c1cc(NCCCC)c(Oc2ccccc2)c(S(N)(=O)=O)c1 | 5.87
C=CCn1c(-c2ccc(Cl)cc2)cs/c1=N\NC(=O)c1cc(NCCCC)c(Oc2ccccc2)c(S(N)(=O)=O)c1 | 5.29
COc1cc(-c2c(F)cccc2F)ccc1O[C@H](C)Cn1cc(-c2ccc(F)cc2)nn1 | 4.87
CC(C)(C)OC(=O)NCCNC(=O)c1ccc(S(N)(=O)=O)cc1 | 7.54
CC(C)c1ccc(C=CC(=O)c2ccc3[nH]c(=O)oc3c2)cc1 | 4.52
CCCCNc1cc(C(=O)N/N=c2\scc(-c3ccc(OC)cc3)n2-c2ccccc2)cc(S(N)(=O)=O)c1Oc1ccccc1 | 6.32
NS(=O)(=O)c1ccc(N2N=C(c3ccccc3)CC2c2ccccc2)cc1 (stereo not shown) | 6.23
COc1cc(-c2ccc(C)cc2)ccc1O[C@H](C)Cn1cc(-c2ccc(C(F)(F)F)cc2)nn1 | 4.68
COc1ccc(C2=NN(c3ccc(S(N)(=O)=O)cc3)C(c3ccc(O)cc3)C2)cc1 (stereo not shown) | 8.27
